What Caco2 B to A was measured for each of the following?
- System: Caco-2 cells (clone C2BBe1)
- measurement setup: human, Caco-2
The response must contain the number and no unit.

State, in one line, measured Caco2 B to A of COC(C)(C)COC(=O)OC[C@H]1O[C@@](C#N)(c2ccc3c(N)ncnn23)[C@@H]2OC(=O)CCCC(=O)O[C@@H]21 3.46

State, in one line, measured Caco2 B to A of CC1(C)CC(=O)O[C@H]2[C@@H](OC(=O)C1)[C@](C#N)(c1ccc3c(N)ncnn13)O[C@@H]2COC(=O)OC1CCOC1 (stereo partly drawn) 5.13

State, in one line, measured Caco2 B to A of CCOC(=O)C(C)(C)OC(=O)OC[C@H]1O[C@@](C#N)(c2ccc3c(N)ncnn23)[C@@H]2OC(=O)CC(C)(C)CC(=O)O[C@@H]21 11.62

====

- procedure summary: in vitro
- measurement setup: human, plasma
What half-life at 2 μM was measured for each of the following?
Output spec: scalar in h, unitless text.

State, in one line, measured half-life at 2 μM of CC(C)OC(=O)OC[C@H]1O[C@@](C#N)(c2ccc3c(N)ncnn23)[C@@H]2OC(=O)CC(C)(C)CC(=O)O[C@@H]21 20.6

State, in one line, measured half-life at 2 μM of CCOC(=O)[C@@H]1[C@H](OC(=O)OC[C@H]2O[C@@](C#N)(c3ccc4c(N)ncnn34)[C@@H]3OC(=O)CCCC(=O)O[C@@H]32)CCN1C 0.516

State, in one line, measured half-life at 2 μM of N#C[C@@]1(c2ccc3c(N)ncnn23)O[C@H](COC(=O)OCCN2CCOCC2)[C@H]2OC(=O)CCCC(=O)O[C@H]21 1.51

====

- procedure summary: in vitro
- Format: in vitro ADME
- measurement setup: human, s9, pH 7.4
endpoint: half-life at 2 μM (s)
Output spec: scalar in s, unitless text.

State, in one line, measured half-life at 2 μM of CC(C)OC(=O)OC[C@H]1O[C@@](C#N)(c2ccc3c(N)ncnn23)[C@@H]2OC(=O)CCOCCC(=O)O[C@@H]21 41.2

State, in one line, measured half-life at 2 μM of COC(=O)OC[C@H]1O[C@@](C#N)(c2ccc3c(N)ncnn23)[C@@H]2OC(=O)CC(C)(C)CC(=O)O[C@@H]21 374

State, in one line, measured half-life at 2 μM of CC(C)OC(=O)OC[C@H]1O[C@@](C#N)(c2ccc3c(N)ncnn23)[C@@H]2OC(=O)CN(C)CC(=O)O[C@@H]21 41.6

====

What log10 half-life at 2 μM was measured for each of the following?
- procedure summary: in vitro
- measurement setup: human, plasma
// stored as log10 of half-life at 2 μM expressed in min

State, in one line, measured log10 half-life at 2 μM of COC(=O)[C@H]([C@@H](C)OC(=O)OC[C@H]1O[C@@](C#N)(c2ccc3c(N)ncnn23)[C@@H]2OC(=O)CCCC(=O)O[C@@H]21)N(C)C [Compound C31, 2,2,2-trifluoroacetate] 1.19

State, in one line, measured log10 half-life at 2 μM of CCOC(=O)OC[C@H]1O[C@@](C#N)(c2ccc3c(N)ncnn23)[C@@H]2OC(=O)CC(C)(C)CC(=O)O[C@@H]21 [Compound C14] 1.43

State, in one line, measured log10 half-life at 2 μM of CC1(C)CC(=O)O[C@H]2[C@@H](OC(=O)C1)[C@](C#N)(c1ccc3c(N)ncnn13)O[C@@H]2CO [Compound C11] 2.62

State, in one line, measured log10 half-life at 2 μM of CC(C)(C)COC(=O)OC[C@H]1O[C@@](C#N)(c2ccc3c(N)ncnn23)[C@@H]2OC(=O)CCCC(=O)O[C@@H]21 [Compound C29] 1.08

State, in one line, measured log10 half-life at 2 μM of CC1(C)CC(=O)O[C@H]2[C@@H](OC(=O)C1)[C@](C#N)(c1ccc3c(N)ncnn13)O[C@@H]2COC(=O)OC1CCCC1 [Compound C37] 2.48

State, in one line, measured log10 half-life at 2 μM of CN1[C@@H]2CC[C@H]1C[C@@H](OC(=O)OC[C@H]1O[C@@](C#N)(c3ccc4c(N)ncnn34)[C@@H]3OC(=O)CCCC(=O)O[C@@H]31)C2 [Compound C30] 1.38

====

- Tested on: Caco-2 cells (clone C2BBe1)
- measurement setup: human, Caco-2
I would appreciate it if you labelled entries class 1 when Caco2 A to B is 0.7 or higher, otherwise class 0.

Item CC(C)OC(=O)OC[C@H]1O[C@@](C#N)(c2ccc3c(N)ncnn23)[C@@H]2OC(=O)OCCC=CCCOC(=O)O[C@@H]21 with Caco2 A to B of 0.7 or above? class 1

Item CC(C)OC(=O)OC[C@H]1O[C@@](C#N)(c2ccc3c(N)ncnn23)[C@@H]2OC(=O)CN(C)CC(=O)O[C@@H]21 with Caco2 A to B of 0.7 or above? class 0

Item CC(C)OC(=O)OC[C@H]1O[C@@](C#N)(c2ccc3c(N)ncnn23)[C@@H]2OC(=O)CCCC(=O)O[C@@H]21 with Caco2 A to B of 0.7 or above? class 1

Item CC(C)OC(=O)OC[C@H]1O[C@@](C#N)(c2ccc3c(N)ncnn23)[C@@H]2OC(=O)OCCCCCCOC(=O)O[C@@H]21 with Caco2 A to B of 0.7 or above? class 1

Item CC(C)OC(=O)OC[C@H]1O[C@@](C#N)(c2ccc3c(N)ncnn23)[C@@H]2OC(=O)CCOCCC(=O)O[C@@H]21 with Caco2 A to B of 0.7 or above? class 1

====

- procedure summary: in vitro
- Assay type: cell-based
- measurement setup: human
What CC50 was measured for each of the following?

State, in one line, measured CC50 of CC1(C)CC(=O)O[C@H]2[C@@H](OC(=O)C1)[C@](C#N)(c1ccc3c(N)ncnn13)O[C@@H]2COC(=O)OC(C)(C)C(F)F > 50 µM

State, in one line, measured CC50 of CC1(C)CC(=O)O[C@H]2[C@@H](OC(=O)C1)[C@](C#N)(c1ccc3c(N)ncnn13)O[C@@H]2COC(=O)OCCN1CCOCC1 > 50 µM

State, in one line, measured CC50 of CCC(CC)COC(=O)OC[C@H]1O[C@@](C#N)(c2ccc3c(N)ncnn23)[C@@H]2OC(=O)CCCC(=O)O[C@@H]21 > 50 µM

State, in one line, measured CC50 of CCOC(=O)C(C)(C)OC(=O)OC[C@H]1O[C@@](C#N)(c2ccc3c(N)ncnn23)[C@@H]2OC(=O)CC(C)(C)CC(=O)O[C@@H]21 > 50 µM

State, in one line, measured CC50 of CC(C)(C)COC(=O)OC[C@H]1O[C@@](C#N)(c2ccc3c(N)ncnn23)[C@@H]2OC(=O)CCCC(=O)O[C@@H]21 > 50 µM

State, in one line, measured CC50 of CCC(CC)COC(=O)OC[C@H]1O[C@@](C#N)(c2ccc3c(N)ncnn23)[C@@H]2OC(=O)CC(C)(C)CC(=O)O[C@@H]21 30.9 µM

====

- procedure summary: in vitro
- Format: in vitro ADME
- measurement setup: human, s9, pH 7.4
endpoint: half-life at 2 μM (min)
Output spec: scalar in min, unitless text.

State, in one line, measured half-life at 2 μM of CC(C)OC(=O)OC[C@H]1O[C@@](C#N)(c2ccc3c(N)ncnn23)[C@@H]2OC(=O)CC(C)(C)CC(=O)O[C@@H]21 6

State, in one line, measured half-life at 2 μM of CC(C)OC(=O)OC[C@H]1O[C@@](C#N)(c2ccc3c(N)ncnn23)[C@@H]2OC(=O)OCCCCCCOC(=O)O[C@@H]21 0.691

State, in one line, measured half-life at 2 μM of CC1(C)[C@H]2CC[C@@](C)(C2)[C@H]1OC(=O)OC[C@H]1O[C@@](C#N)(c2ccc3c(N)ncnn23)[C@@H]2OC(=O)CCCC(=O)O[C@@H]21 0.595

State, in one line, measured half-life at 2 μM of CN1[C@@H]2CC[C@H]1C[C@@H](OC(=O)OC[C@H]1O[C@@](C#N)(c3ccc4c(N)ncnn34)[C@@H]3OC(=O)CCCC(=O)O[C@@H]31)C2 0.575

State, in one line, measured half-life at 2 μM of COC(C)(C)COC(=O)OC[C@H]1O[C@@](C#N)(c2ccc3c(N)ncnn23)[C@@H]2OC(=O)CC(C)(C)CC(=O)O[C@@H]21 9.97

State, in one line, measured half-life at 2 μM of COC(=O)[C@H]([C@@H](C)OC(=O)OC[C@H]1O[C@@](C#N)(c2ccc3c(N)ncnn23)[C@@H]2OC(=O)CC(C)(C)CC(=O)O[C@@H]21)N(C)C 29.5
